Assay Target: human S1PR5 (Homo sapiens)
Construct: host or cells: CHO-K1
Method: Intracellular Ca2+ release (FLIPR) agonist potency, S1P5
Type: cell-based
Test Parameters: S1P5 EC50 range, recombinant CHO-K1 cells expressing human S1PR5, aequorin, Gq/i5; Calcium 5 FLIPR
Property Label: EC50

Reported EC50, molecule CCc1cccc(F)c1COc1ccc2c(c1)OC[C@@H](NCc1cc(O)no1)C2 [Compound 136] : ____
< 10 nM

====

Assay Target: human S1PR5 (Homo sapiens, UniProt Q9H228)
Construct: host or cells: CHO-K1
Sequence (Q9H228 whole entry): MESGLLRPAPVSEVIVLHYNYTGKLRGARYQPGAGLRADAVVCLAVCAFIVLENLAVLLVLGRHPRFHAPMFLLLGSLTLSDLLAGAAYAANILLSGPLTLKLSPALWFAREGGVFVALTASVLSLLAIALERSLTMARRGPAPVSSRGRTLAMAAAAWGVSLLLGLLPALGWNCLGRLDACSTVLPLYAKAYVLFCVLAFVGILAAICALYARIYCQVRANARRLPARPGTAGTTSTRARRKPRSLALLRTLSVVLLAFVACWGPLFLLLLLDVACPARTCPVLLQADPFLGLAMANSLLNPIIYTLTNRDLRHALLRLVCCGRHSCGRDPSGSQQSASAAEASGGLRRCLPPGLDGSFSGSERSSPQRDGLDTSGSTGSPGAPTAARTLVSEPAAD
Method: Intracellular Ca2+ release (FLIPR) agonist potency, S1P5
Assay type: cell-based
Test Parameters: recombinant CHO-K1 cells expressing human S1PR5, aequorin, Gq/i5; Calcium 5 FLIPR; read-out: S1P5 EC50 range
Quick reference for EC50 among some compounds

What value of EC50 has been recorded for this entry: O=C(O)COC1CCc2cc(OCc3ccccc3OC(F)(F)F)ccc2C1 (stereo not drawn)
100 to 1000 nM

Any idea what EC50 was measured for O=C(O)COC1CCc2cc(OCc3ccc(OC(F)(F)F)cc3)ccc2C1 (stereo not drawn) ?
1000 to 10000 nM

# lookup: EC50 of O=C(O)COC1CCc2cc(OCc3ccccc3F)ccc2C1 (stereo not drawn)
1000 to 10000 nM
